target: IDH1-R132H (Homo sapiens, UniProt O75874, R132H); test: Fluorescent determination of IDH1-R132H cell activity (2-HG in U87MGR132H cells); conditions: 2-HG inhibition in U87MGR132H cells transfected with IDH1-R132H mutant plasmid
Sequence (O75874 whole entry R132H): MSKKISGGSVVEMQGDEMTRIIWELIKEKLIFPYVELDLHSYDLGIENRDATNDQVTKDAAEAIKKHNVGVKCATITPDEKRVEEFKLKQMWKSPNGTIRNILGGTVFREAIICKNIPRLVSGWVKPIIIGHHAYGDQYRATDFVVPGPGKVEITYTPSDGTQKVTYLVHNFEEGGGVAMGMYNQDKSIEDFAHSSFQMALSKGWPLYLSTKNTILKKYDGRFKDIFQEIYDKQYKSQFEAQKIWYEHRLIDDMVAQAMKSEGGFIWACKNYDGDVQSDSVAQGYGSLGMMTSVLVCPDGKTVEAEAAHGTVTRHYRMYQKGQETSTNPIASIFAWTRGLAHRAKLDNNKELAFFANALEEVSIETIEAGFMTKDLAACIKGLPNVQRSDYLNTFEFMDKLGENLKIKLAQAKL
pIC50: −log10 of the molar value.
# Lookup of reported pIC50 keyed by entry

molecule | measured_property | result
C[C@@H](Nc1nc(N[C@@H]2CCC(F)(F)C2)nc(C2=C(F)C(O)C(F)CC2)n1)C(F)(F)F (single isomer, unassigned) [Compound 232] | pIC50 | 7.15
CC(C)(C)ONc1nc(Nc2ccc3sncc3c2)nc(C2=C(F)C(O)CCC2)n1 (racemic) | pIC50 | < 5.00

Problem: Report measured pIC50; entry is CCONc1nc(Nc2ccnc(C(F)(F)F)c2)nc(C2=C(F)C(O)C(F)(F)CC2)n1 (stereo not drawn)
Solution: < 5.00

----------
# Lookup of reported pIC50 keyed by entry
biological target: IDH2-R140Q (Homo sapiens, UniProt P48735, R140Q); assay: Fluorescent determination of IDH2-R140Q cell activity (2-HG in U87MGR140Q cells); conditions: 72 hours incubation, read-out: IC50 (2-HG inhibition)
Remember, pIC50 is on a log scale: it is -log10 of the molar concentration.

compound | pIC50
C[C@@H](Nc1nc(N[C@@H]2CCC(F)(F)C2)nc(C2=C(F)C(O)C(F)CC2)n1)C(F)(F)F (single isomer, unassigned) [Compound 233] | 6.43
[2H]C([2H])([2H])Nc1nc(Nc2ccnc(C(F)(F)F)c2)nc(C2=C(F)C(O)CCC2)n1 (stereo not drawn) | 6.77

Pending compound:
Problem: Send back IDH2-R140Q (Homo sapiens, UniProt P48735, R140Q) pIC50 of CC(C)Nc1nc(N[C@H](C)C(F)(F)F)nc(C2=CC(=O)CCC2)n1 only.
Solution: 5.87

----------
assay: Metabolic stability test in liver microsomes (rat); assay type: in vitro ADME; conditions: percentage of remaining compound after incubation for 30 minutes vs 0 minute; 1 μM compound; 0.5 mg/mL liver microsomes; 37° C.
# Lookup of reported Rat liver microsome stability keyed by entry

molecule | measured_property | result
[2H]C1([2H])CCC(c2nc(NC3CC(F)(F)C3)nc(N[C@@H](C)C(F)(F)F)n2)=C(F)C1O (stereo partly drawn) [Compound 84] | Rat liver microsome stability | 67.8%
[2H]C1(O)CCCC(c2nc(N[C@H](C)C(F)(F)F)nc(N[C@H](C)C(F)(F)F)n2)=C1F (mixture of isomers) [Compound 18] | Rat liver microsome stability | 91.5%
[2H]C1([2H])CCC(c2nc(NC3CC(F)(F)C3)nc(N[C@@H](C)C(F)(F)F)n2)=C(F)C1([2H])O (mixture of isomers) [Compound 90] | Rat liver microsome stability | 82.4%
C[C@@H](Nc1nc(N[C@H](C)C(F)(F)F)nc(C2=C(F)C(O)C(F)CC2)n1)C(F)(F)F (single isomer, unassigned) [Compound 98] | Rat liver microsome stability | 99.2%
C[C@H](Nc1nc(NC2CC(F)(F)C2)nc(C2=C(F)C(O)C(F)(F)CC2)n1)C(F)(F)F (mixture of isomers) [Compound 239] | Rat liver microsome stability | 93.0%
CC(C)Nc1nc(N[C@H](C)C(F)(F)F)nc(C2=C(F)C(O)CCC2)n1 (mixture of isomers) [Compound 1] | Rat liver microsome stability | 73.8%
C[C@@H](Nc1nc(NC2CC(F)(F)C2)nc(C2=C(F)C(O)C(F)CC2)n1)C(F)(F)F (single isomer, unassigned) [Compound 227] | Rat liver microsome stability | 88.8%
[2H]C1(O)C(F)=C(c2nc(N[C@H](C)C(F)(F)F)nc(N[C@H](C)C(F)(F)F)n2)CCC1(F)F (mixture of isomers) [Compound 211] | Rat liver microsome stability | 98.8%
[2H]C1(O)C(F)=C(c2nc(N[C@H](C)C(F)(F)F)nc(N[C@H](C)C(F)(F)F)n2)CCC1F (stereo partly drawn) [Compound 266] | Rat liver microsome stability | 98.2%
OC1C=C(c2nc(NC3CC(F)(F)C3)nc(NC3CC(F)(F)C3)n2)CCC1 (stereo not drawn) [Compound 127] | Rat liver microsome stability | 49.8%

Problem: Report measured Rat liver microsome stability; entry is C[C@@H](Nc1nc(NC2CCC2)nc(C2=C(F)C(O)CCC2)n1)C(F)(F)F (mixture of isomers) [Compound 7]
Solution: 50.3%

Problem: Report measured Rat liver microsome stability; entry is C[C@H](Nc1nc(N[C@H](C)C(F)(F)F)nc(C2=C(F)C(O)CCC2)n1)C(F)(F)F (mixture of isomers) [Compound 11]
Solution: 87.6%

Problem: Report measured Rat liver microsome stability; entry is CC(C)Nc1nc(N[C@H](C)C(F)(F)F)nc(C2=C(F)C(O)C(F)(F)CC2)n1 (stereo partly drawn) [Compound 94]
Solution: 82.6%

Problem: Report measured Rat liver microsome stability; entry is CC(Nc1nc(NC2CC(F)(F)C2)nc(C2=C(F)C(O)CCC2)n1)C(F)(F)F (racemic) [Compound 4]
Solution: 62.9%

Problem: Report measured Rat liver microsome stability; entry is OC1C(F)=C(c2nc(NC3CC(F)(F)C3)nc(NC3CC(F)(F)C3)n2)CCC1F (single isomer, unassigned) [Compound 201]
Solution: 91.6%

----------
# Lookup of reported log10 of IC50 keyed by entry
Target: IDH2-R140Q (Homo sapiens, UniProt P48735, R140Q)
Sequence (P48735 40-452 R140Q): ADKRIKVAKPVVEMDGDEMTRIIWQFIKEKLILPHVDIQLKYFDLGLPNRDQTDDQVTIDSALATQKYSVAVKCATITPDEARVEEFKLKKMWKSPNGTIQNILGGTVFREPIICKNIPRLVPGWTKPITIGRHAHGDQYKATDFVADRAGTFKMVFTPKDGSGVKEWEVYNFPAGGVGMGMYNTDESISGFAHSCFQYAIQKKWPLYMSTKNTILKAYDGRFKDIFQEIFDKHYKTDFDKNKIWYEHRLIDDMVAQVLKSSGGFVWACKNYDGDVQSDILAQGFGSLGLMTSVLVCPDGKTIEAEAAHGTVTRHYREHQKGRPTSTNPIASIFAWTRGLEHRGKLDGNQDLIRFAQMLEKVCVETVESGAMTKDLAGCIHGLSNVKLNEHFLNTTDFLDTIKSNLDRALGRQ
Experiment: Fluorescent determination of IDH2-R140Q cell activity (2-HG in U87MGR140Q cells)
Settings: 72 hours incubation, read-out: IC50 (2-HG inhibition)
Answers are given as log10 of IC50 in nM.

molecule | log10 of IC50
[2H]C1(O)C(F)=C(c2nc(N[C@H](C)C(F)(F)F)nc(N[C@H](C)C(F)(F)F)n2)CCC1(F)F (mixture of isomers) [Compound 211] | 1.99
Cc1cc(Nc2nc(NOC(C)(C)C)nc(C3=C(F)C(O)CCC3)n2)ccn1 (stereo not drawn) [Compound 204] | 2.32

Problem: Report measured log10 of IC50; entry is C[C@@H](CF)Nc1nc(N[C@H](C)C(F)(F)F)nc(C2=C(F)C(O)CCC2)n1 (mixture of isomers) [Compound 170]
Solution: 3.14

Problem: Report measured log10 of IC50; entry is [2H]C1(O)CCCC(c2nc(N[C@H](C)C(F)(F)F)nc(NC([2H])(C([2H])([2H])[2H])C([2H])([2H])[2H])n2)=C1F (mixture of isomers) [Compound 29]
Solution: 2.25

Problem: Report measured log10 of IC50; entry is C[C@@H](Nc1nc(NC2CC2)nc(C2=C(F)C(O)C(F)(F)CC2)n1)C(F)(F)F (mixture of isomers) [Compound 238]
Solution: 2.14

Problem: Report measured log10 of IC50; entry is OC1CCCC(c2nc(NCC(F)(F)F)nc(NC3CC(F)(F)C3)n2)=C1F (stereo not drawn) [Compound 241]
Solution: 2.00

Problem: Report measured log10 of IC50; entry is [2H]C1([2H])CCC(c2nc(N[C@@H](C)C(F)(F)F)nc(N[C@@H](C)C(F)(F)F)n2)=C(F)C1O (stereo partly drawn) [Compound 87]
Solution: 2.31

Problem: Report measured log10 of IC50; entry is OC1C(F)=C(c2nc(NC3CC(F)(F)C3)nc(NC3CC(F)(F)C3)n2)CCC1F (single isomer, unassigned) [Compound 202]
Solution: 2.58

Problem: Report measured log10 of IC50; entry is C[C@@H](Nc1nc(Nc2ccc3cccnc3c2)nc(C2=C(F)C(O)CCC2)n1)C(F)(F)F (stereo partly drawn) [Compound 68]
Solution: 2.64

Problem: Report measured log10 of IC50; entry is C[C@@H](Nc1nc(N[C@@H]2CCC(F)(F)C2)nc(C2=C(F)C(O)C(F)CC2)n1)C(F)(F)F (single isomer, unassigned) [Compound 232]
Solution: 1.60

Problem: Report measured log10 of IC50; entry is CC(C)(C)ONc1nc(Nc2ccnc(Cl)c2)nc(C2=C(F)C(O)CCC2)n1 (stereo not drawn) [Compound 47]
Solution: 1.77
